Target: T1, Atg3^∆FR (yeast Atg3 lacking the flexible region) (S. cerevisiae, UniProt P40344 1-310, ∆FR (FR, residues 85–159))
T1 sequence: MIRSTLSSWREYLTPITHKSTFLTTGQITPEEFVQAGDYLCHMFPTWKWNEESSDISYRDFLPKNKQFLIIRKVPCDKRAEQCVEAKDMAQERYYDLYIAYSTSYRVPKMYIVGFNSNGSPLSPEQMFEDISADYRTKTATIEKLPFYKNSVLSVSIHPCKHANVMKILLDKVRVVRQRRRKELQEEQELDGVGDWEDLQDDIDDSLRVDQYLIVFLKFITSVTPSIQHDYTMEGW
Assay: NMR
measure.name: Kd (µM)
Number in µM, nothing else.

Ask | Param item = Atg3^FR 86–159 mutant I132D, L135D, I136D (printed elsewhere as I136R) (domain or fragment) VEGPDVIMKGFAEDGDEDDVLEYIGSETEHVQSTPAGGTKDSSIDDDDEDDQDMEIKEEDENDDTEEFNAKGGL ; retrieve measured Kd.
Reply | 994
